A set of compounds tested on 5-hydroxytryptamine receptor 2A (Homo sapiens), with measured pKi:
Scale: pKi equals -log10([C]), with [C] in mol/L.

- CCOc1ccccc1-c1cc(Cl)cc2c1N1CCNCCC1C2 (single isomer, unassigned; (+)): 6.94

*Q* Which pKi is listed for Clc1ccccc1-c1cccc2c1N1CCNCCC1C2 (stereo not drawn) ?
*A* 7.09

*Q* Same question for Fc1ccc(-c2cc(Cl)cc3c2N2CCNCCC2C3)cc1 (stereo not drawn) please.
*A* 6.84

====

biological target: 5-hydroxytryptamine receptor 2C (Homo sapiens); assay: Binding affinity against 5-hydroxytryptamine 2C receptor using [125I]DOI radioligand.
Sequence (P28335 whole entry): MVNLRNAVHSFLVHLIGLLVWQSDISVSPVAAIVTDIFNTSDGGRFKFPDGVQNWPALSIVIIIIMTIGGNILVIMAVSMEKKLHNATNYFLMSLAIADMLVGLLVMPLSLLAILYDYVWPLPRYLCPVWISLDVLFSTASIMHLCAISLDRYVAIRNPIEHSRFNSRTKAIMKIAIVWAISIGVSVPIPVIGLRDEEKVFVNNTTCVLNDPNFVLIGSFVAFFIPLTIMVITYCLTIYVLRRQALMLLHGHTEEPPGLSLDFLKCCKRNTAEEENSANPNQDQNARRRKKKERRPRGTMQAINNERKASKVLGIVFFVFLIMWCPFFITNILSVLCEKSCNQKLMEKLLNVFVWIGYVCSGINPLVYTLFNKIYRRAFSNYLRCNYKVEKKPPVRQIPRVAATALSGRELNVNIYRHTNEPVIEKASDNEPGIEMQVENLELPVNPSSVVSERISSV
A collection of compounds and their measured pKi
The meaning of pKi here: minus log10 of the concentration in molar units.

Here's what some known entries look like.
* CCOc1cccc(-c2cc(Cl)cc3c2N2CCNCCC2C3)c1 (centres undefined) | 6.33
* CCOc1ccccc1-c1cccc2c1N1CCNCCC1C2 (single isomer, unassigned; (-)) | 6.71
* CCOc1ccccc1-c1cc(Cl)cc2c1N1CCNCCC1C2 (stereo in doubt) | 6.75
* Cc1ccccc1-c1cccc2c1N1CCNCCC1C2 (stereo in doubt; (-)) | 7.41
* CCOc1ccccc1-c1ccc2c(c1)CC1CCNCCN21 (centres undefined) | 5.32
* c1ccc2c(c1)CC1CCNCCN21 (centres undefined) | 6.14
* Clc1cc2c(c(-c3ccccc3Cl)c1)N1CCNCCC1C2 (centres undefined) | 7.24
* CCOc1ccccc1-c1cc(Cl)cc2c1N1CCNCCC1C2 (single isomer, unassigned; (+)) | 7.49

Then this compound:
*Q* Looking for the measured pKi of `NC(=O)c1c2n(c3ccccc13)CCNCC2` , can you help?
*A* 7.13

====

biological target: Serotonin 2 receptors; 5-HT2a & 5-HT2c (Homo sapiens) (UniProt P28223+P28335); experiment: Selectivity ratio of binding affinity of 5-hydroxytryptamine 2A receptor to that of 5-hydroxytryptamine 2C receptor.; assay type: protein assay
Sequence (P28223 whole entry, looked up): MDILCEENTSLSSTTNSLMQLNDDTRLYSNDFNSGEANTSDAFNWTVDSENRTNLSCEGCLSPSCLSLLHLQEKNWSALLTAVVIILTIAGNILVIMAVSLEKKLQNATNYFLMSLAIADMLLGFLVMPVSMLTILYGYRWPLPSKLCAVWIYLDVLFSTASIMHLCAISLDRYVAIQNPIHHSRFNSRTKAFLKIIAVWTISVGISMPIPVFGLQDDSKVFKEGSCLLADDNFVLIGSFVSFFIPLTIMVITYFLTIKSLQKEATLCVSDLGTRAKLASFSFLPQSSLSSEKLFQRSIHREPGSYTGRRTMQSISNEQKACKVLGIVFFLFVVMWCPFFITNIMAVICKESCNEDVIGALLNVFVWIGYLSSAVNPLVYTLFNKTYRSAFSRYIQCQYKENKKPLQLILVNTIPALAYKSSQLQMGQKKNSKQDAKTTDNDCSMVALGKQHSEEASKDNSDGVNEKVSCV
Sequence (P28335 whole entry, looked up): as the sequence (P28335 whole entry) above
value kind: Selectivity ratio

* Clc1ccccc1-c1cccc2c1N1CCNCCC1C2 (stereo not given) | 3.57
* CCOc1ccccc1-c1cc(Cl)cc2c1N1CCNCCC1C2 (stereo in doubt) | 1.99
* COc1ccc(Cl)cc1-c1cc(Cl)cc2c1N1CCNCCC1C2 (stereo not given) | 0.95
* O=Cc1c2n(c3ccccc13)CCNCC2 | 2.4
* Clc1ccc(-c2cc(Cl)cc3c2N2CCNCCC2C3)c(Cl)c1 (stereo not given) | 1.1

# evaluate next
*Q* What value of Selectivity ratio has been reported for the following compound? Fc1ccccc1-c1cc(Cl)cc2c1N1CCNCCC1C2 (stereo not given)
*A* 0.63

====

molecular target: 5-hydroxytryptamine receptor 2C (Homo sapiens); assay: Binding affinity against 5-hydroxytryptamine 2C receptor using [125I]DOI radioligand.
value kind: pKi
To interpret pKi, take it as minus log10 of a concentration measured in moles per litre.

• O=Cc1c2n(c3ccccc13)CCNCC2 = 7.92
• Clc1ccc(Cl)c(-c2cc(Cl)cc3c2N2CCNCCC2C3)c1 (centres undefined) = 6.80
• Cc1ccccc1-c1cccc2c1N1CCNCCC1C2 (stereo in doubt; (+)) = 7.52

# next compound below
*Q* What value of measured pKi is listed for CCOc1ccccc1-c1cccc2c1N1CCNCCC1C2 (stereo in doubt; 20a) ?
*A* 6.96
